Biological target: Mu-type opioid receptor (Homo sapiens)
Test: OPRM1 agonists via beta-arrestin recruitment, confirmation, counter-screen for mouse HTR2A agonist project, cell-based, luminescence, single concentration (AID 624380)
Conditions: U2OS OPRM1 beta-arrestin PathHunter, at 9.3 µM, DMSO 0%, DAMGO 9.3 µM 100%
The whole screen tested about 2,300 compounds, of which about 120 (5.2%) were called active.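 How the source made its calls: active means mean activation above the mean of DMSO-only wells plus 3 SD (cut at about 0.5% in these data); inactive means the rest.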 A selection follows.
Outcome codes: yes (1) = active, no (0) = inactive

> print(dat)
                                    compound  category
 1         Fc1ccc2[nH]c3c(N4CCSCC4)ncnc3c2c1   yes (1)
 2  O=C(NCc1ccco1)c1cccn2c(=O)c3c4c(sc3nc12)CCCC4    no (0)
 3  C=C1C(=O)OC2C1CCC(C)=CCCC1(C)OC21 (configuration not stated)    no (0)
 4  CCCN(CCc1ccccc1)C1CCc2c(O)cccc2C1 (configuration not stated)    no (0)
 5  Cc1cccc(CN2CCN(C3CN(Cc4ccccc4)S(=O)(=O)C3)CC2)c1 (configuration not stated)    no (0)
 6        COC(=O)c1ccc(CSc2nnc(NC(C)C)s2)cc1    no (0)
 7  CCCCC(CC)CNC(=O)CCCCn1c(=O)[nH]c2ccsc2c1=O (configuration not stated)    no (0)
 8  CCOc1ccc(/C(O)=C2\C(=O)C(=O)N(c3ccc(OC)cc3)C2c2ccccc2[N+](=O)[O-])cc1 (configuration not stated)    no (0)
 9  Cc1ccc(C(=O)N/C(=C/c2cccs2)C(=O)N2CCCCC2)cc1    no (0)
10           COC(=O)c1cc(N2CCNCC2)nc2ccccc12    no (0)
11  Cc1ccc2c(c1)NCC(C(=O)NC1CCC(C)CC1)O2 (configuration not stated)    no (0)
12  CCOC(=O)/C=c1\s/c(=C\c2ccccc2OC)c(=O)n1CC(=O)N1CCOCC1    no (0)
13  COc1ccccc1Nc1nnc(SC(C)C(=O)NC2CC2)s1 (configuration not stated)    no (0)
14         CCn1c(SCC(=O)N2CCCC2=O)nc2ccccc21    no (0)
15  CCn1cc(C(=O)OCC(=O)Nc2cccc(C)c2)c(=O)c2ccc(C)nc21    no (0)
16  Nc1cc(C(=O)N2CCN(c3ccccc3Cl)CC2)ccc1N1CC2CC(C1)c1cccc(=O)n1C2 (configuration not stated)    no (0)
17      CSc1nsc(SCC(=O)Nc2cc(C(=O)O)ccc2C)n1    no (0)
18  Cc1ccc2nc(-c3ccncc3)cc(C(=O)Nc3ccncc3)c2c1   yes (1)
19  COc1ccc2[nH]cc(CCN3C(=O)c4ccc(C(=O)O)cc4C3=O)c2c1    no (0)
20     O=C(c1ccncc1)N1CCN(c2ccc3ccccc3n2)CC1   yes (1)
21  C=CCn1c(=NC(=O)c2cccs2)sc2cc(NC(C)=O)ccc21    no (0)
22  COc1ccc(NS(=O)(=O)c2cc(C(=O)Nc3ccccc3C(=O)O)ccc2C)cc1    no (0)

* * *

Molecular target: Mu-type opioid receptor (Homo sapiens) (UniProt P35372)
Sequence (P35372 whole entry, looked up): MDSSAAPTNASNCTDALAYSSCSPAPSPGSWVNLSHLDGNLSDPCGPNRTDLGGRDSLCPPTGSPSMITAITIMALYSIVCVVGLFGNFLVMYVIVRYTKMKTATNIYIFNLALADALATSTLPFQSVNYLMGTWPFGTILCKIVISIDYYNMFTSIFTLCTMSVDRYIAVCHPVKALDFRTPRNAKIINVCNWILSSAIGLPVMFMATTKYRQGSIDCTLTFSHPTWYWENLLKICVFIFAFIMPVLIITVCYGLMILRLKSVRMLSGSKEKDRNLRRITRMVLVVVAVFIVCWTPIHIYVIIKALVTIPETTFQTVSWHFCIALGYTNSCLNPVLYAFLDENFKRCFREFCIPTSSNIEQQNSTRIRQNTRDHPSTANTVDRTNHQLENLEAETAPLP
Experiment: OPRM1 agonists via beta-arrestin recruitment, confirmation, counter-screen for mouse HTR2A agonist project, cell-based, luminescence, single concentration (AID 624380)
Settings: U2OS OPRM1 beta-arrestin PathHunter, at 9.3 µM, stronger effect = higher value, DMSO 0%, DAMGO 9.3 µM 100%
The whole screen tested about 2,300 compounds, of which about 120 (5.2%) were called active. Only a sample is shown.
MEASUREMENT TYPE: activation (%)

> print(dat)
                                    molecule  units.of.measure  obs.value
 1   Cc1ccc(NC(=O)CSc2nnc(COc3ccccc3C)o2)cc1                 %       -0.2
 2          Cc1ccccc1CSCC(=O)NC(=O)NC(C)(C)C                 %      -0.45
 3                NNc1cccc(C=Cc2ccccc2)cc1=O                 %       0.48
 4  Nc1c(N(Cc2ccco2)C(=O)c2cccc(F)c2)c(=O)[nH]c(=O)n1Cc1ccccc1                 %      -0.45
 5   COC(=O)CC(=O)N1CCN(c2ccc(Cl)c(Cl)c2)CC1                 %      -0.63
 6       CCOCCCNC(=O)Cc1cc(=O)[nH]c(=O)[nH]1                 %      -0.49
 7  CC(Nc1ccccc1)c1cccnc1 (stereo unspecified)                 %      -0.58
 8  O=C(O)C1C2C=CC(O2)C1C(=O)NCCc1cccc(Cl)c1 (stereo unspecified)                 %      -0.74
 9  O=C(CNCc1cccs1)Nc1cc(S(=O)(=O)N2CCCC2)ccc1Cl                 %      -0.34
10  COC(=O)[C@@]1(Cc2ccc(F)cc2)[C@H]2c3cc(C(=O)N(C)C)n(CCc4c[nH]c5ccc(OC)cc45)c3C[C@H]2CN1C(=O)c1ccccc1                 %       -0.5
11               CSc1ncnc2c1ncn2CCCNCc1cccs1                 %      -0.51

Cited source: PubChem BioAssay AID624380
